assay: yeast display, Sf9 membrane polyspecificity reagent, FACS + sequencing; frameworks hold sequencing errors
OBSERVED_PROPERTY: polyreactivity (PSR sort gate)

QVQLVESVGGLVQAGGSLRLSCAASGFIFYYNTMGWYRQAPGKERELVAAISSGGRTYYADSVKGRFTISRDNAKNTVYLQMNSLKPEYTAVYYCNVVTYVKYGYWGQGTQVTVSS	high polyreactivity
QVQLVESGGGLVQAGGSLRLRCAASGSIFYFYAMGWYRQAPGQEREFVAAITRSGGRTYYADSVKGRFTISRDNAKNTVYLQMNSLKPEDTAVYYCDAVPYDKRKGDYWGQGTQVTVSS	high polyreactivity

* * *

test: yeast display, Sf9 membrane polyspecificity reagent, FACS + sequencing; frameworks hold sequencing errors
OBSERVED_PROPERTY: polyreactivity (PSR sort gate)

Example entries begin here.
QVQLVESGGGLVQAGGRLRLSCAASGSTIPRYAMGWSRQAPGKERELVAAITNGGSTNYADSVKGRFTISRDNAKNTVYLQMNSLKPEDTAVYYCAKRFGYRFYYGGQGTQVTVSS	high polyreactivity
QFQLVESVGGLVQAGGSLRLSLASSGSIFGPNTMGWYRQAPGKERELVAAIRGGGSTNYADSVKGRFTISRDNAKNTVYLQMNSLKPEDTAVYYCNATWNLFPGFLDRYDYWGQGTQVTVSS	low polyreactivity
QVQLVESGGGLVQAGGSLRLSCAASGRTYAYYAMGWYRQAPGKERELVAAITRGTDTHYADSVKGRFTISRDNAKNTVYLQMNSLKPEDTAVYYCAADLSQDFDYWGQGTQVTVSS	low polyreactivity
QVQLVESGGGLVQAGGSLRLSCAASGSIFYANAMGWYRQAPGKERELVAAIDGGSTYYADSVKGRFTISRDNAKNTVYLQMNSLKPEDTAVYYCAADYFNYRGYTYLGDYWGQGTQVTVSS	low polyreactivity
QVQLVESVGGLVQAGASLRLSCAASGSTFDYYAMGSYRQAPGKERELVAAISRTGGRTYYADSVKGRFTISRDNAKNTVYLQMNSLKPEDTAVYYCNAVTRIGGGDYDYWGQGTQVTVSS	low polyreactivity

Item: `QVQLVETGAGLVQAGGSLRLSSAASGFIFYPYAMGWYRQAPGKERELVAVINKSSDNTYYADSVKGRFTISRDNAKNTVYLQMNSLKPEDTAVYYCAAEYVFYSRFFTEEYWGQGTQVTVSS` | polyreactivity (PSR sort gate): low polyreactivity

Item: `QVQLVESGGCLVQAGGSLRLSCASSGFTIWQNAMGWYRQAPGKERELVAGIRLSGGSTYADSEKGRFTISRDNAKNTVYLQMNSLKPEDTAVYYCAARIAGYYRYRSLRYDYWGQGTQGTVSS` | polyreactivity (PSR sort gate): high polyreactivity

Item: `QVQLVESGGGLVQAGGSLRLSCAASGSTLRAYAMGWSRQAPGKERELVAAINVSSGGTYYADSVKGRFTISRDNAKNTVYLQMNSLKPEDTAVYYCAARARWAGLRYTRYYYWGQGTQVTVSS` | polyreactivity (PSR sort gate): high polyreactivity

Item: `QVQLVESGGGLVQAGGSLRLSCAASGSTFPAYAMGWYRQAPGKERELVAVINLSGSTYYADSVKGRFTISRDNAKNTVYLQMNSLKPEDTAVYYCNARPYDYYRYGYWGQGTQVTVSS` | polyreactivity (PSR sort gate): low polyreactivity

Item: `QVQLQESGGGLVQAGGSLRLSCAASGSIFDYVSMGWYRQAPGEERELVVTITLGSNTYYADSVKGRFTISSDIAKNTVYLQMNSLNPEDTAVYYCAPSALWGYVYPYWGLGTQVTVSS` | polyreactivity (PSR sort gate): high polyreactivity

Item: `QVQLEESGGGLVQAGGSLRLSCAASGSIFRPNAMGWYRQAPGKERELVASINSGSGSTYYADSVKGRFTISRDNAKNTVYLQMNSLKPEDTAVYYCNAAGAYPYYSEDYYWGQGTQVTVSS` | polyreactivity (PSR sort gate): low polyreactivity
